System: A498 renal
Experimental Details: NCI tumour cell line growth inhibition, 48 h; in the data active = GI50 below about 0.43 µM; inactive = the rest
Field 'call' accepts active, inactive

INSERT INTO assay_data (smiles_string, discrete_label) VALUES
  ('CCOC(=O)c1sc2ncn(Cc3cccc(Cl)c3)c(=O)c2c1C', 'inactive'),
  ('O=C(Oc1cccc(Nc2ncnc3ccccc23)c1)c1ccccc1Cl', 'inactive'),
  ('O=C1C(Cl)=C(Oc2ccccc2)C(=O)c2ccccc21', 'inactive'),
  ('O=c1oc2ccccc2c(Cl)c1Cl', 'inactive'),
  ('COc1ccc(/C=C(\C#N)n2nnc3cc(Cl)ccc32)cc1', 'active');

Attention now shifts to the item below.
input: Per the assay record, what outcome was assigned to COc1ccc(-c2nc3sccn3c2/C=C/C(=O)c2cc(OC)c(OC)c(OC)c2)cc1OC ?
output: inactive
